Target: T1, ScSsz1-Zuo1NΔLP complex (ScSsz1 with ScZuo1NΔLP residues 10-50) (S. cerevisiae, UniProt P38788 1-538; P32527 10-50)
T1 construct: Ssz1, S. cerevisiae; Zuo1, S. cerevisiae, residues 10-50, lacking the LP-motif (ScZuo1NΔLP); residues of the 3C site may be left on Zuo1NΔLP; not shown: His6-MBP, N-terminal, cleaved
T1 sequence (looked up) 1: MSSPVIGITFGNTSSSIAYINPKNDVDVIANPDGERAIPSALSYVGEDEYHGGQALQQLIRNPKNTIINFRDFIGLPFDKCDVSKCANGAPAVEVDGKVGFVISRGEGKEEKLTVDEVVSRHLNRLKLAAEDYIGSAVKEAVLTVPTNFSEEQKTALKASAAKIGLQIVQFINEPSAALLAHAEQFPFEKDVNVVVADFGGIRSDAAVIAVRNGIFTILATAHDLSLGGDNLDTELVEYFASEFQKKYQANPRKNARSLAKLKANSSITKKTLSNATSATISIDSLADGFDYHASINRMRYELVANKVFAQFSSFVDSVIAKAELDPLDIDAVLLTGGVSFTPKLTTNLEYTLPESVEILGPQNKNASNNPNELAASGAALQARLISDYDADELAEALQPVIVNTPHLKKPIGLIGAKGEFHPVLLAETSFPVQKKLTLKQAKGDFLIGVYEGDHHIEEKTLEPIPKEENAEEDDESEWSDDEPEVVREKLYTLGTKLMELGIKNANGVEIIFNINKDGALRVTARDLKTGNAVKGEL
T1 sequence (looked up) 2: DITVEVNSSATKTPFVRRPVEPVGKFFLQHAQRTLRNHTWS
Assay: fluorescence polarisation; fluorescence anisotropy; two-fold serial dilutions of the protein complex mixed 1:1 with 40 nM fluorescein peptide; 20 mM Hepes/KOH pH 7.5, 200 mM KCl, 5 mM MgCl2, 1 mM DTT, 1 µM BSA; room temperature, 30 min; one-site binding fit; affinity called estimated
Details: both partners purified
pKd: −log10 of the molar value. No end group written: not given here. fluorescein = fluorescein (N-terminal label)
assay-metric: pKd

{"columns": ["binder", "endpoint-value"],
 "data": [
  ["fluorescein-MFSLPTL (LP-motif of Zuo1, S. cerevisiae, residues 1-7; source: synthetic peptide (Peptide Specialty Laboratories GmbH, Heidelberg)) [LP-peptide (MFSLPTL) labelled at the N terminus with fluorescein]", 4.92]
]}
